- testSystem: T1, Myo5, Q04439
- T1 sequence (Q04439 1072-1160, looked up): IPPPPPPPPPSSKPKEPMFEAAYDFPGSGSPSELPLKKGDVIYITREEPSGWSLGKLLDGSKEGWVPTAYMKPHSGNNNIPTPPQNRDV
- measurementNotes: SPOT array
- details: median of control spots 471
We label by threshold. Values of SPOT intensity strictly beneath 90 are YES. Values of 90 and up are NO.

1) SSSSTPPTLPPRRIE = YES
2) PPPPPPPPPPLPQSL = NO
3) VTHRLRISIPGITGR = YES
4) APPLPPTAPPPPSLP = NO
5) TEVPIPRRPPPPQAA = NO
6) SKAKRPKFLLDLQIK = YES
7) LRIKRKPVQTFFEFI = YES
8) RPVPRRPSQPLNTLS = YES

Reference source: paper PMC2756588
